Consider the following compounds; for each one, report its Vd.
Assay: PK, intravenous administration
Assay type: in vivo, male Sprague Dawley rats
Settings: male, Sprague Dawley, plasma; rat, intravenous, dose 1 mg/kg; read-out: Vdss
Counter-ions that a name gives are not always drawn.
Answers are plain numbers, in L/kg.

Previously resolved entries follow.
>>> quantitative_result("O=C(Nc1c2c(cc3c1CCC3)CCC2)NS(=O)(=O)C1CN(C2CSC2)C1 [Example 109, potassium salt]")
0.64
>>> quantitative_result("CCN1CCCC(S(=O)(=O)NC(=O)Nc2c3c(cc4c2CCC4)CCC3)C1 (stereo not drawn) [Example 9, potassium salt]")
0.63
>>> quantitative_result("CN1CCC(S(=O)(=O)NC(=O)Nc2c3c(cc4c2CCC4)CCC3)CC1 [Example 1, potassium salt]")
0.58
>>> quantitative_result("CCCN1CC(S(=O)(=O)NC(=O)Nc2c3c(cc4c2CCC4)CCC3)C1 [Example 76, potassium salt]")
0.25
>>> quantitative_result("COc1cc(-c2ccc3c(c2NC(=O)NS(=O)(=O)c2cn(C(C)C)c(=O)cn2)CCC3)ccn1 [Example 156]")
0.31
>>> quantitative_result("CC(C)N1CCC(S(=O)(=O)NC(=O)Nc2c3c(cc4c2CCC4)CCC3)C1 (stereo not drawn) [Example 41, potassium salt]")
0.78

Count: 6. Required value per item: Vd.
1. CC(C)N1CCCC(S(=O)(=O)NC(=O)Nc2c3c(cc4c2CCC4)CCC3)C1 (stereo not drawn) [Example 31, potassium salt]
2. CC(C)N1CC(S(=O)(=O)NC(=O)Nc2c3c(cc4c2CCC4)CCC3)C1 [Example 46, potassium salt]
3. COc1cc(-c2ccc3c(c2NC(=O)NS(=O)(=O)c2ccc(=O)n(C(C)C)c2)CCC3)ccn1 [Example 153]
4. O=C(Nc1c2c(cc3c1CCC3)CCC2)NS(=O)(=O)C1CN(C2CCCC2)C1 [Example 99, potassium salt]
5. O=C(Nc1c2c(cc3c1CCC3)CCC2)NS(=O)(=O)C1CN(C2CCC2)C1 [Example 18, potassium salt]
6. CCN1CCC(S(=O)(=O)NC(=O)Nc2c3c(cc4c2CCC4)CCC3)CC1 [Example 6, potassium salt]

1. 0.47
2. 0.45
3. 1.21
4. 0.42
5. 0.42
6. 0.61
